Test: cells
Assay type: functional, cell-based
The source made the active and inactive calls.
OBSERVATION_TYPE: EC50

molecule=Cc1cc(C)n(CCC(=O)N/N=C/c2c(O)ccc3ccccc23)n1 observation_type=EC50 reading="> 350 µM (not active)"
molecule="COCc1ccc(C(=O)N2CCCC(CCC(=O)NCc3ccccc3F)C2)o1 (stereo not given)" observation_type=EC50 reading="> 350 µM (not active)"
molecule=Cc1c(Cl)cccc1NC(=S)N/N=C/c1ccccc1Cl observation_type=EC50 reading="> 350 µM (not active)"
molecule=Oc1ccc2ccccc2c1N=Nc1nccs1 observation_type=EC50 reading="40.5 µM (active)"
molecule="CCOC(=O)C(NC(C)=O)(N1CCOCC1)C(F)(F)F (stereo not given)" observation_type=EC50 reading="> 350 µM (not active)"

* * *

Biological target: Cytochrome P450 2C9 (Homo sapiens, UniProt P11712)
Sequence (P11712 whole entry): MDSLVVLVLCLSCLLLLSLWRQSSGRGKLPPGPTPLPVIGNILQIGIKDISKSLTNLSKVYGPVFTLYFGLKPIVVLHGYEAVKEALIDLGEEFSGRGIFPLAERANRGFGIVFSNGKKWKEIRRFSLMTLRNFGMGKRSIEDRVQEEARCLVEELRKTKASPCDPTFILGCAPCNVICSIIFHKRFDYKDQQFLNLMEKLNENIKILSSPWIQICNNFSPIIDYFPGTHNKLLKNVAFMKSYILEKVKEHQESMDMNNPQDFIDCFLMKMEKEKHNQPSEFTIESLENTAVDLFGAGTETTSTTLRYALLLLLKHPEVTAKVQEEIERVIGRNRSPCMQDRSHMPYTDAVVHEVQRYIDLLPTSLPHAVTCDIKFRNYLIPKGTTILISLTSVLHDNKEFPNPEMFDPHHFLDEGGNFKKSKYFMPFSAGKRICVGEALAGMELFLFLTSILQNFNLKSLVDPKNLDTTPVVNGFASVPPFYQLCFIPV
OBSERVATION_TYPE: AC50

molecule=O=C1/C(=C/c2cccnc2)SC(=S)N1Cc1ccco1 target_of_assay="Cytochrome P450 2C9 (Homo sapiens, UniProt P11712)" observation_type=AC50 reading="6.31 µM (inconclusive)"
molecule=O=C(C1CCN(S(=O)(=O)N2CCOCC2)CC1)N1CCN(c2ccccc2)CC1 target_of_assay="Cytochrome P450 2C9 (Homo sapiens, UniProt P11712)" observation_type=AC50 reading="22.4 µM (inconclusive)"
molecule=Fc1cccc(Cl)c1/C=N\N=C1c2ccccc2-c2ccccc21 target_of_assay="Cytochrome P450 2C9 (Homo sapiens, UniProt P11712)" observation_type=AC50 reading="3.16 µM (inconclusive)"
molecule=Clc1ccc(Cl)c(Nc2ccnc(SCc3ccccc3)n2)c1 target_of_assay="Cytochrome P450 2C9 (Homo sapiens, UniProt P11712)" observation_type=AC50 reading="6.31 µM (inconclusive)"
molecule="CC1CC(C)CN(C(=O)CNS(=O)(=O)c2ccc(Br)s2)C1 (configuration not stated)" target_of_assay="Cytochrome P450 2C9 (Homo sapiens, UniProt P11712)" observation_type=AC50 reading="10 µM (inconclusive)"
molecule=O=C(O)CCC(=O)N1CCc2cc(S(=O)(=O)N3CCCCC3)ccc21 target_of_assay="Cytochrome P450 2C9 (Homo sapiens, UniProt P11712)" observation_type=AC50 reading="15.8 µM (inconclusive)"
molecule=COc1cccc(-c2nccc(NCc3cccc(C)c3)n2)c1 target_of_assay="Cytochrome P450 2C9 (Homo sapiens, UniProt P11712)" observation_type=AC50 reading="1.58 µM (inconclusive)"
molecule=COc1ccccc1NS(=O)(=O)c1cccc(C(=O)OCC(=O)Nc2cc(C)on2)c1 target_of_assay="Cytochrome P450 2C9 (Homo sapiens, UniProt P11712)" observation_type=AC50 reading="12.6 µM (inconclusive)"
molecule=O=C(NC(=S)Nc1ccc(Br)cn1)c1cncc(Br)c1 target_of_assay="Cytochrome P450 2C9 (Homo sapiens, UniProt P11712)" observation_type=AC50 reading="0.447 µM (inconclusive)"
molecule="CCCc1nnc(SCC(=O)N2CCCCC2C)n1CCCOC (configuration not stated)" target_of_assay="Cytochrome P450 2C9 (Homo sapiens, UniProt P11712)" observation_type=AC50 reading="0.0251 µM (inconclusive)"
molecule=CCNc1ncc2nc(CCc3ccccc3)c(=O)n(-c3ccc(OC)cc3)c2n1 target_of_assay="Cytochrome P450 2C9 (Homo sapiens, UniProt P11712)" observation_type=AC50 reading="15.8 µM (inconclusive)"
molecule=CC(C)c1nc2ccccn2c1NC1CCCCC1 target_of_assay="Cytochrome P450 2C9 (Homo sapiens, UniProt P11712)" observation_type=AC50 reading="39.8 µM (inconclusive)"
molecule=O=C(NNC(=S)Nc1ccccc1)c1ccco1 target_of_assay="Cytochrome P450 2C9 (Homo sapiens, UniProt P11712)" observation_type=AC50 reading="35.5 µM (inconclusive)"
molecule=CC(=O)NCCn1c(SCC(=O)NCc2ccco2)nc2ccccc2c1=O target_of_assay="Cytochrome P450 2C9 (Homo sapiens, UniProt P11712)" observation_type=AC50 reading="25.1 µM (inconclusive)"
molecule=Clc1ccccc1-c1nc(Nc2ccncc2)c2ccccc2n1 target_of_assay="Cytochrome P450 2C9 (Homo sapiens, UniProt P11712)" observation_type=AC50 reading="1.58 µM (inconclusive)"
molecule=N#CC(=C1CCCC1)c1nc(-c2ccccc2)cs1 target_of_assay="Cytochrome P450 2C9 (Homo sapiens, UniProt P11712)" observation_type=AC50 reading="25.1 µM (inconclusive)"
molecule=COc1ccccc1/C=N/N=C(/Nc1ccc(C)cc1)c1nc2ccccc2s1 target_of_assay="Cytochrome P450 2C9 (Homo sapiens, UniProt P11712)" observation_type=AC50 reading="17.8 µM (inconclusive)"
molecule=COCCCN1Cc2ccccc2C1=N target_of_assay="Cytochrome P450 2C9 (Homo sapiens, UniProt P11712)" observation_type=AC50 reading="11.2 µM (inconclusive)"
molecule=O=C(Nc1cccc(F)c1)N1CC2(CCN(S(=O)(=O)c3ccccc3)CC2)C1 target_of_assay="Cytochrome P450 2C9 (Homo sapiens, UniProt P11712)" observation_type=AC50 reading="20 µM (inconclusive)"
molecule=CCOc1ccc(C(=O)Nc2ccccc2N2CCCC2)cc1 target_of_assay="Cytochrome P450 2C9 (Homo sapiens, UniProt P11712)" observation_type=AC50 reading="14.1 µM (inconclusive)"
molecule="CC(C)N(CCNC(=O)C1CCC(=O)N1Cc1ccc(F)cc1)Cc1ccccc1 (configuration not stated)" target_of_assay="Cytochrome P450 2C9 (Homo sapiens, UniProt P11712)" observation_type=AC50 reading="22.4 µM (inconclusive)"
molecule=CCOC(=O)c1cnn(-c2ccc(C(C)C)cc2)c1NC(=O)C1CCC1 target_of_assay="Cytochrome P450 2C9 (Homo sapiens, UniProt P11712)" observation_type=AC50 reading="39.8 µM (inconclusive)"

* * *

Measured AC50 (UniProt P08684)
Sequence (P08684 whole entry): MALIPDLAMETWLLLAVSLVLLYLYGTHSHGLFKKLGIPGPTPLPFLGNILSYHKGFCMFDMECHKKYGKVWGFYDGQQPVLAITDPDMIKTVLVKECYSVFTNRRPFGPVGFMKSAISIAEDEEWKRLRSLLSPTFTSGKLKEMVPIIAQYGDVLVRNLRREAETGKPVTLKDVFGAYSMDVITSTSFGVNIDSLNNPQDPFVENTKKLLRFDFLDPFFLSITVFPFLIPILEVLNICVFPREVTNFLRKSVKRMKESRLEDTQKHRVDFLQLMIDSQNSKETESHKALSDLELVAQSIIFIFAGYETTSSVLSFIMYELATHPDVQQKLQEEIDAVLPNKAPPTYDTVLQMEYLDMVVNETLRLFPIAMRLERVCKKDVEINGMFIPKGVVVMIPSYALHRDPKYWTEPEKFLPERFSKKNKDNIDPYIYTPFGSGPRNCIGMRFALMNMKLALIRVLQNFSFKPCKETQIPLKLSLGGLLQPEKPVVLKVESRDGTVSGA
OBSERVATION_TYPE: AC50

molecule=CCN(CC)S(=O)(=O)c1cc(C(=O)Nc2ccccc2C(=O)O)ccc1OC reading="12.6 µM (inconclusive)"
molecule=O=c1c(-c2ccccc2)nc2cnc(N3CCOCC3)nc2n1CCc1ccccc1 reading="31.6 µM (inconclusive)"
molecule=Cc1nn(C(C)(C)C)c(OC(=O)c2ccco2)c1Sc1ccccc1 reading="39.8 µM (inconclusive)"
molecule=O=C1NC(=O)[C@@](Cc2ccccc2)(c2cccnc2)N1 reading="3.98 µM (inconclusive)"
molecule="CCCc1nnc(SCC(=O)N2CCCCC2C)n1CCCOC (centres undefined)" reading="15.8 µM (inconclusive)"
molecule=COC(=O)[C@@]1(Cc2ccc(F)cc2)[C@H]2c3cc(C(=O)N4CCCC4)n(CCc4c[nH]c5ccc(OC)cc45)c3C[C@H]2CN1C(=O)c1ccccc1 reading="0.251 µM (inconclusive)"
molecule="CC1CC(C)CN(C(=O)CNS(=O)(=O)c2ccc(Br)s2)C1 (centres undefined)" reading="11.2 µM (inconclusive)"
molecule="COCCCNC(=O)C1CC(=O)N(CCc2ccc(OC)c(OC)c2)C1 (centres undefined)" reading="15.8 µM (inconclusive)"
molecule=COc1ncc2nc(C)c(=O)n(C3CC3)c2n1 reading="25.1 µM (inconclusive)"
molecule=CCC(=O)N(Cc1ccco1)c1nc(-c2ccccc2)cs1 reading="39.8 µM (inconclusive)"
molecule=COc1ccc(CC(=O)Nc2ccc(-c3noc(-c4cccc(OC)c4)n3)cc2)cc1 reading="1 µM (inconclusive)"
molecule="Cc1cc(C(F)F)n2nc(C(=O)Nc3sc4c(c3C#N)CCC(C)C4)nc2n1 (centres undefined)" reading="15.8 µM (inconclusive)"
molecule=CC(C)(C)S(=O)(=O)c1cnc2c(-c3ccc(F)cc3)cnn2c1N reading="7.94 µM (inconclusive)"
molecule=COc1ccccc1-c1nc(NCCN2CCOCC2)c2ccccc2n1 reading="31.6 µM (inconclusive)"

* * *

Below: a set of entries, each annotated with reported IC50.
Target: UniProt:Q9H0H5
Sequence (Q9H0H5 whole entry): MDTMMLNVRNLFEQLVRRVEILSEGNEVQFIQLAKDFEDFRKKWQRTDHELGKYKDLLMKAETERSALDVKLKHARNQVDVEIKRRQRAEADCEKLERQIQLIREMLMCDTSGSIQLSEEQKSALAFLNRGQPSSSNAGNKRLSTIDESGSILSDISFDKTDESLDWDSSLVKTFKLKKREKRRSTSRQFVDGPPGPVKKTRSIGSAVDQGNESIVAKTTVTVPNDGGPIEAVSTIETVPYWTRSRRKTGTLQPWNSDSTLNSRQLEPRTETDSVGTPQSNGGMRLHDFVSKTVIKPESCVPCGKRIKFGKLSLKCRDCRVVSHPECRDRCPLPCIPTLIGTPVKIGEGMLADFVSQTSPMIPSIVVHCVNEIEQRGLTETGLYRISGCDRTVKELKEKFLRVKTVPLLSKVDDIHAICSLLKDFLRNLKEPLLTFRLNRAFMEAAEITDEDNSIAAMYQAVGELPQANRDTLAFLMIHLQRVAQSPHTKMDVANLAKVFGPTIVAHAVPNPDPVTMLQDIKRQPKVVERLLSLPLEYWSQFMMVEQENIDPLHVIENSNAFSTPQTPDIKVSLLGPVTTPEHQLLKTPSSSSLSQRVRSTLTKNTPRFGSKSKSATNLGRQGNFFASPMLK
Experiment: blockers of MgcRacGAP-driven Rac1 GTP hydrolysis – biochemical, ADP Hunter fluorescence, primary and confirmatory, confirmation (AID 624330)
Format: functional
Active and inactive are the calls of the source.
OBSERVATION_TYPE: IC50

cpd_smiles=C=CCn1c(CNc2ccccc2)nnc1SCC(=O)N/N=C/c1ccc(O)cc1O reading="68.8 µM (active)"
cpd_smiles=O=C1N=C(NCc2ccccc2)S/C1=C/c1ccc(O)cc1 reading="18.9 µM (active)"
cpd_smiles=O=C(O)c1ccccc1-c1ccc(C=C2C(=O)N(c3ccccc3)C(=S)N(c3ccccc3)C2=O)o1 reading="105 µM (active)"
cpd_smiles=Cc1ccc(S(=O)(=O)N2CCN(C(=O)CN3CCN(c4ccc(O)cc4)CC3)CC2)cc1 reading="32.4 µM (active)"
cpd_smiles=O=c1c2ccccc2nc(/C=C/c2ccc(O)c(O)c2)n1-c1ccccc1 reading="73.9 µM (active)"
